meta.source: paper PMC8627988

Target: UniProt P37231
Sequence (P37231 235-505 limits assumed): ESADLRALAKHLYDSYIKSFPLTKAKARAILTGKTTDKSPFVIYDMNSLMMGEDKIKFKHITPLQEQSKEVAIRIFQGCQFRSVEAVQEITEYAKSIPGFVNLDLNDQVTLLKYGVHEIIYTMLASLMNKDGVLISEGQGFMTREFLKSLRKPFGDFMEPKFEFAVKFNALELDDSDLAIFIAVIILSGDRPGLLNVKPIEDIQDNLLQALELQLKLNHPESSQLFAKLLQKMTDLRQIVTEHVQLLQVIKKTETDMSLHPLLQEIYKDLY
Quantity Name: IC50

Please indicate recorded IC50 of Cc1c(C)n(Cc2ccc(-c3ccccc3C(=O)O)cc2)c2ccc(C(=O)NCc3cccc(O)c3)cc12 [WO95E] measured with UniProt P37231. ~11 nM
